Target: NUDT7 (Homo sapiens)
Construct: residues 14-235, E. coli, pNIC28-Bsa4, N-terminal His6 tag removed by TEV, construct 26672 Da
Design: Intact protein LC/MS covalent labelling, fragments in pools of five, 200 uM each, 4 °C
Conditions: 24 h, 4 °C, pool of five; 200 µM; covalent
reported_metric: NUDT7
Provide a numeric answer; units are not to be included.

Worked cases, NUDT7 given:
O=C(CCl)Nc1cc(C(F)(F)F)ccc1N1CCOCC1 [PCM-0102741]	0
C=CC(=O)N1CCC(Oc2cnc3ccccc3n2)CC1 [PCM-0102925]	0

## Task Item Cl.O=C(CCl)N1CCN(c2ccc(O)cc2)CC1 [PCM-0102357] with NUDT7 (Homo sapiens) - NUDT7?
## Result 0

## Task One more compound: O=C(CCl)NCc1ccco1 [PCM-0102671]
## Result 0

## Task Would you mind doing O=C(CCl)Nc1nc(-c2ccco2)cs1 [PCM-0102979] as well?
## Result 0.25

## Task Same for C=CC(=O)N1CCCc2c([nH]c3c(F)cccc23)C1 [PCM-0102767]
## Result 0

## Task Note, next up: O=C(CCl)NC(=O)NC1CC1 [PCM-0102411]
## Result 0

###

Assay: in vitro
Set-up: species or system CCD841, HEK293
Conditions: human, hb2 cells, read-out: HB-2 Cells Viability (%)
Mark satisfied only for viability at 48 h, 10 µM values smaller than 90%; exact matches and larger values are not satisfied.

Cc1cccc(CN2CCN(C(=O)CCl)CC2)c1	satisfied
CC1CCC(N(C(=O)CCl)C2CC2)CC1 (centres unmarked)	satisfied
O=C(CCl)N1CCc2sccc2C1c1ccccc1 (centres unmarked)	satisfied

Moving on to the next molecule.
## Task Is viability at 48 h, 10 µM strictly under 90% for the entry C=CC(=O)NC1CCN(C(=O)NCC)C1 (centres unmarked) ?
## Result not satisfied

###

Biological target: NNMT (hNNMT) (Homo sapiens, UniProt P40261)
Construct: wild type, N-terminal His6 tag kept (no cleavage described), E. coli, construct 31248 Da
Sequence (P40261 1-264): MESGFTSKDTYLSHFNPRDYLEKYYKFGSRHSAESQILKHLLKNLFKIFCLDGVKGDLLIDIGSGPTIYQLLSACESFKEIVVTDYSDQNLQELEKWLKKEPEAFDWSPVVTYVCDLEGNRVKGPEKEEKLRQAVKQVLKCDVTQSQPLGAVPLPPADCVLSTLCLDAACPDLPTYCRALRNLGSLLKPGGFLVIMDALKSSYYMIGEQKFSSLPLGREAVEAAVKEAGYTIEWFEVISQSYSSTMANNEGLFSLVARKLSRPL
Set-up: Intact protein LC/MS covalent labelling, fragments in pools of five, 200 uM each, 4 °C
Details: 24 h, 4 °C, pool of five; 200 µM; covalent
Protocol: Incubations were performed at 200 μM for each compound and 2 μM of protein (10 μM for BSA) for 24 h at 4 °C with moderate shaking. […] Following incubation, we used intact protein [compound left out] chromatography/mass spectrometry (LC/MS) to identify the fragments and quantify their labeling (Figure 3A). […]
reported_metric: NNMT
Give only the figure.

Example results:
O=C(CCl)N1CCC(C(=O)N2CCCC2)CC1	0.17
CCc1cccc(C)c1NC(=O)CCl	0
CNC(=O)c1ccc(NC(=O)CCl)cc1	0

## Task Find the recorded NNMT belonging to CS(=O)(=O)c1ccc(F)c(NC(=O)CCl)c1 and report it.
## Result 0

## Task Follow-up item: C=CC(=O)NC1(C(N)=O)CCCOC1 (centres unmarked)
## Result 0

## Task Ok, now O=C(CCl)N1CCN(Cc2ccc3c(c2)OCCO3)CC1
## Result 0

## Task Proceed to Cc1csc(CC(=O)NNC(=O)CCl)n1.Cl
## Result 0

## Task Moving on to the next molecule: CNC(=O)NC(=O)CCl
## Result 0

## Task Then Cc1ccccc1CN1CCN(C(=O)CCl)CC1.Cl ?
## Result 0

## Task How about this molecule: C=CC(=O)N1CCCc2c([nH]c3c(F)cccc23)C1
## Result 0

## Task And Cl.O=C(CCl)N1CCN(c2ccccc2F)CC1 ?
## Result 0

###

Assay: in vitro
Parameters: species or system HB2, HEK293
Details: human, ccd841 cells
reported_metric: viability at 48 h, 10 µM (%)
Lab book: enter the figure in %, no units written.

## Task Quick check: viability at 48 h, 10 µM of O=C(CCl)N1CCN(C(=O)C2CC2)CC1 ?
## Result 72.5

## Task Now give it for C=CC(=O)NC(c1cnn(C)c1)C(F)(F)F (stereo not drawn) too.
## Result 107

## Task Another molecule to check: CS(=O)(=O)c1ccc(F)c(NC(=O)CCl)c1
## Result 53.6

## Task Let us now turn to CC(C)(C)C(=O)NNC(=O)CCl
## Result 93.1

## Task Also CN(C)C(=O)c1ccc(NC(=O)CCl)cc1 , if possible.
## Result 61.7

## Task Cool, now Cc1ccc(S(=O)(=O)N2CCN(C(=O)CCl)CC2)cc1C
## Result 22.6

###

Molecular target: NUDT7 (Homo sapiens, UniProt P0C024)
Construct: residues 14-235, E. coli, pNIC28-Bsa4, N-terminal His6 tag removed by TEV, construct 26672 Da
Sequence (P0C024 14-235): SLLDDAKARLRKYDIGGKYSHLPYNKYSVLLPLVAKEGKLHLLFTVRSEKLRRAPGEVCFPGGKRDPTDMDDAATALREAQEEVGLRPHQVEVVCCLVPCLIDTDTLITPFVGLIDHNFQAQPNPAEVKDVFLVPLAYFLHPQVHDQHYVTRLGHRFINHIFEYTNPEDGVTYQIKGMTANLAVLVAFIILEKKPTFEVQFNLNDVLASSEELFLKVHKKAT
Set-up: Intact protein LC/MS covalent labelling, fragments in pools of five, 200 uM each, 4 °C
Conditions: 24 h, 4 °C, pool of five; 200 µM; covalent
Reported values of NUDT7 for individual entries

CCc1nc(NC(=O)CCl)sc1C	0.33

## Task I am curious: what NUDT7 value has been reported for N#CSc1ccc(NC(=O)CCl)c(Br)c1 ?
## Result 0

## Task Please give the result for O=C(CCl)Nc1ccccc1C(F)(F)F too.
## Result 0

###

Experiment: in vitro
Design: species or system HB2, HEK293
Conditions: human, ccd841 cells
Decide using viability at 48 h, 10 µM alone. Strictly below 80%: Satisfied. Equal to or above 80%: Not satisfied.

Cc1ccc(C(=O)N2CCN(C(=O)CCl)CC2)cc1	Satisfied

## Task hey, is viability at 48 h, 10 µM for C=CC(=O)N1CCCN(C(=O)c2cc(Cl)cn2C)CC1 lower than 80% or not?
## Result Not satisfied

## Task Same again, this time with CC(=O)N1CCN(C(=O)CCl)CC1
## Result Not satisfied

## Task Same question, C=CC(=O)NC1CCCN(C(=O)OC)C1 (centres unmarked) this time
## Result Not satisfied

###

Biological target: OTUB2 (OTUB2A) (Homo sapiens, UniProt Q96DC9)
Construct: full length residues 1-234, E. coli BL21(DE3)-R3, His tag removed by TEV, construct 27312 Da
Sequence (Q96DC9 whole entry, the tested form may be a part): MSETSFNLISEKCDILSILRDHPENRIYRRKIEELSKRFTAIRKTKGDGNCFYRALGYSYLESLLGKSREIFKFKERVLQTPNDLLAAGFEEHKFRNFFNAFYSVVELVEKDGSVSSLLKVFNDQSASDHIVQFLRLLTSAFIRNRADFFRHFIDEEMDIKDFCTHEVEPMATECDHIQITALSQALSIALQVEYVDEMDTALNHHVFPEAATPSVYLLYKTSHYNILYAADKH
Design: Intact protein LC/MS covalent labelling, fragments in pools of five, 200 uM each, 4 °C
Settings: 24 h, 4 °C, pool of five; 200 µM; covalent
OTUB2: recorded values
Please give only the number in your answer, with no unit.

Look over these answered cases.
Cc1ccc(CNC(=O)CCl)cc1F	0.5
CC(C)(C)N(Cc1cccc(F)c1)C(=O)CCl	0
COC(=O)c1sccc1NC(=O)CCl	0
Cl.O=C(CCl)N1CCN(Cc2ccccc2F)CC1	0.32
Cc1ccc(NC(=O)CCl)cc1	0.24

## Task Quick one: OTUB2 of O=C(CCl)NC12CC3CC(CC(C3)C1)C2 ?
## Result 0

## Task Next record, please: O=C(CCl)Nc1nccs1
## Result 0

## Task Repeat for the following molecule: O=C1CN(C(=O)CCl)CCN1
## Result 0

## Task # iterate: C=CC(=O)N1CCC(C(=O)O)(c2ccccc2)CC1
## Result 0

## Task Moving on to C=CC(=O)N(C)CC1CCn2ccnc2C1 (centres unmarked)
## Result 0

## Task Try this molecule next: CCC1CN(C(=O)CCl)CCO1 (centres unmarked)
## Result 0

## Task Can you check O=C(CCl)N=c1sccn1Cc1cccc2ccccc12 next?
## Result 0

###

In this section we review reported BSA values for a set of molecules.
Biological target: BSA (Bos taurus)
Construct: gene ALB
Sequence (P02769 whole entry): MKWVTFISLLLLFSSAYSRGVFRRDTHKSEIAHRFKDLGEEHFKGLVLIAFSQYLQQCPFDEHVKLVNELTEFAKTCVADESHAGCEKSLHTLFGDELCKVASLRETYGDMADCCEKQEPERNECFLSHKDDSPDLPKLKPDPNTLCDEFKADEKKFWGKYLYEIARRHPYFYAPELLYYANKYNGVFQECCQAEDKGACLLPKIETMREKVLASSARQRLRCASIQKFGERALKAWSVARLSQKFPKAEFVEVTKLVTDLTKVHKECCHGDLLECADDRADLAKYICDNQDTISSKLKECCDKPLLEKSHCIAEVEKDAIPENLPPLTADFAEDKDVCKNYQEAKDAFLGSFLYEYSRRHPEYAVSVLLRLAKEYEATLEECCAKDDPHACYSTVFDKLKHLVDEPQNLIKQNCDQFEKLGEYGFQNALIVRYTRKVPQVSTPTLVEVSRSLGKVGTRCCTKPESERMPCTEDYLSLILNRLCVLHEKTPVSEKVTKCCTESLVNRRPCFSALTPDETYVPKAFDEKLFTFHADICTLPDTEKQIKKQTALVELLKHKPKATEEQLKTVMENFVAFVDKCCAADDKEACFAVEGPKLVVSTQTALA
Parameters: Intact protein LC/MS covalent labelling, fragments in pools of five, 200 uM each, 4 °C
Conditions: 24 h, 4 °C, pool of five; 200 µM; covalent
When you answer, write just the number.

Below, each entry is followed by its recorded BSA result.
CC1CCCC(C)N1C(=O)CCl (stereo not shown) [PCM-0102616]	0
COC(=O)c1c(NC(=O)CCl)sc2c1CCCCC2 [PCM-0102200]	0

Alright, here's another molecule for you.
## Task Entry under review: Cc1c(C#N)c(NC(=O)CCl)n(-c2cccc(F)c2)c1C [PCM-0102146] . Reported BSA?
## Result 0
